- System: 186277-243-T-J2-PDC spheroids with HUVEC/MSC, viability
- Test Name: Anticancer human tumor 186277-243-T-J2-PDC patient-derived colon adenocarcinoma cell line growth inhibition [CLK]
- Experimental Parameters: second compound 0.1 µM; first compound 0.00316 µM; hits give low values
Value Kind: viability, T/C (%)
Field format: number, assumed %, no unit text.

Known viability, T/C results, listed for orientation:
>  <Molecule>
CCN1CCN(Cc2ccc(Nc3ncc(F)c(-c4cc(F)c5nc(C)n(C(C)C)c5c4)n3)nc2)CC1 + CN1CCN(c2cc(C(=O)Nc3cc4cc(-c5cnn(C)c5)ccc4cn3)ccn2)CC1

>  <Study System>
186277-243-T-J2-PDC spheroids with HUVEC/MSC, viability

>  <Result Unit>
%

>  <viability, T/C>
78.9

$$$$
>  <Molecule>
COc1c(OCCCN2CCOCC2)ccc2c3n(c(=NC(=O)c4cnc(N)nc4)nc12)CCN3 + CN1CCN(c2cc(C(=O)Nc3cc4cc(-c5cnn(C)c5)ccc4cn3)ccn2)CC1

>  <Study System>
186277-243-T-J2-PDC spheroids with HUVEC/MSC, viability

>  <Result Unit>
%

>  <viability, T/C>
68.3

$$$$
>  <Molecule>
Cn1ncnc1[C@H]1c2n[nH]c(=O)c3cc(F)cc(c23)N[C@@H]1c1ccc(F)cc1 + CN1CCN(c2cc(C(=O)Nc3cc4cc(-c5cnn(C)c5)ccc4cn3)ccn2)CC1

>  <Study System>
186277-243-T-J2-PDC spheroids with HUVEC/MSC, viability

>  <Result Unit>
%

>  <viability, T/C>
69

$$$$
>  <Molecule>
Cn1ncnc1[C@H]1c2n[nH]c(=O)c3cc(F)cc(c23)N[C@@H]1c1ccc(F)cc1 + CNC(=O)c1ccc(Nc2nc(OC3CCCC3)c3c(-c4ccc5nc(C)oc5c4)c[nH]c3n2)c(OC)c1

>  <Study System>
186277-243-T-J2-PDC spheroids with HUVEC/MSC, viability

>  <Result Unit>
%

>  <viability, T/C>
66.6

$$$$
>  <Molecule>
CCc1c2c(nc3ccc(O)cc13)-c1cc3c(c(=O)n1C2)COC(=O)[C@]3(O)CC + CN1CCN(c2cc(C(=O)Nc3cc4cc(-c5cnn(C)c5)ccc4cn3)ccn2)CC1

>  <Study System>
186277-243-T-J2-PDC spheroids with HUVEC/MSC, viability

>  <Result Unit>
%

>  <viability, T/C>
66.9

$$$$

Returns the measured viability, T/C for the input molecule. Input: CCc1c2c(nc3ccc(O)cc13)-c1cc3c(c(=O)n1C2)COC(=O)[C@]3(O)CC + CNC(=O)c1ccc(Nc2nc(OC3CCCC3)c3c(-c4ccc5nc(C)oc5c4)c[nH]c3n2)c(OC)c1
77.8

Returns the measured viability, T/C for the input molecule. Input: CCN1CCN(Cc2ccc(Nc3ncc(F)c(-c4cc(F)c5nc(C)n(C(C)C)c5c4)n3)nc2)CC1 + CNC(=O)c1ccc(Nc2nc(OC3CCCC3)c3c(-c4ccc5nc(C)oc5c4)c[nH]c3n2)c(OC)c1
92.7

Returns the measured viability, T/C for the input molecule. Input: COc1c(OCCCN2CCOCC2)ccc2c3n(c(=NC(=O)c4cnc(N)nc4)nc12)CCN3 + CNC(=O)c1ccc(Nc2nc(OC3CCCC3)c3c(-c4ccc5nc(C)oc5c4)c[nH]c3n2)c(OC)c1
49.4

* * *

- System: 186277-243-T-J2-PDC spheroids with HUVEC/MSC, viability
- Test Name: Anticancer human tumor 186277-243-T-J2-PDC cell line growth inhibition [CLK];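 note: compound exposure lasted seven days before readout; 100% = DMSO vehicle control wells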
- Experimental Parameters: second compound 3.16 µM; first compound 0.1 µM; hits give low values
Value Kind: viability, T/C

>  <Molecule>
CCc1c2c(nc3ccc(O)cc13)-c1cc3c(c(=O)n1C2)COC(=O)[C@]3(O)CC + CNC(=O)c1ccc(Nc2nc(OC3CCCC3)c3c(-c4ccc5nc(C)oc5c4)c[nH]c3n2)c(OC)c1

>  <Recorded Result>
10.9%

$$$$

Returns the measured viability, T/C for the input molecule. Input: COC1C=CCC(C)C(C)S(=O)(=O)NC(=O)c2ccc3c(c2)N(CC2CCC21)CC1(CCCc2cc(Cl)ccc21)CO3 (stereo unspecified) + CNC(=O)c1ccc(Nc2nc(OC3CCCC3)c3c(-c4ccc5nc(C)oc5c4)c[nH]c3n2)c(OC)c1
27%

Returns the measured viability, T/C for the input molecule. Input: C#Cc1c(F)ccc2cc(O)cc(-c3ncc4c(N5CC6CCC(C5)N6)nc(OCC56CCCN5CC(F)C6)nc4c3F)c12 (stereo unspecified) + CNC(=O)c1ccc(Nc2nc(OC3CCCC3)c3c(-c4ccc5nc(C)oc5c4)c[nH]c3n2)c(OC)c1
11.4%

Returns the measured viability, T/C for the input molecule. Input: Nc1ccn(C2OC(CO)C(O)C2(F)F)c(=O)n1 (stereo unspecified) + CN1CCN(c2cc(C(=O)Nc3cc4cc(-c5cnn(C)c5)ccc4cn3)ccn2)CC1
1.46%

Returns the measured viability, T/C for the input molecule. Input: CCCS(=O)(=O)Nc1ccc(F)c(C(=O)c2c[nH]c3ncc(-c4ccc(Cl)cc4)cc23)c1F + CN1CCN(c2cc(C(=O)Nc3cc4cc(-c5cnn(C)c5)ccc4cn3)ccn2)CC1
1.22%

Returns the measured viability, T/C for the input molecule. Input: CC(Nc1ccc2c(c1)OCCn1cc(N3C(=O)OCC3C(F)F)nc1-2)C(N)=O (stereo unspecified) + CN1CCN(c2cc(C(=O)Nc3cc4cc(-c5cnn(C)c5)ccc4cn3)ccn2)CC1
0.72%

* * *

- System: 186277-243-T-J2-PDC spheroids with HUVEC/MSC, viability
- Test Name: Anticancer human tumor 186277-243-T-J2-PDC cell line growth inhibition [CLK];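 note: compound exposure lasted seven days before readout; 100% = DMSO vehicle control wells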
- Experimental Parameters: second compound 10 µM; first compound 0.316 µM; hits give low values
Value Kind: viability, T/C

Known viability, T/C results, listed for orientation:
>  <Compound>
CC(CO)NC(=O)c1cc(-c2ccc(Cl)cc2)nn(-c2cnn(C)c2)c1=O (centres undefined) + CNC(=O)c1ccc(Nc2nc(OC3CCCC3)c3c(-c4ccc5nc(C)oc5c4)c[nH]c3n2)c(OC)c1

>  <Recorded Result>
32%

$$$$
>  <Compound>
CC(Nc1ccc2c(c1)OCCn1cc(N3C(=O)OCC3C(F)F)nc1-2)C(N)=O (centres undefined) + CN1CCN(c2cc(C(=O)Nc3cc4cc(-c5cnn(C)c5)ccc4cn3)ccn2)CC1

>  <Recorded Result>
0.74%

$$$$
>  <Compound>
Nc1ccccc1NC(=O)c1ccc(CNC(=O)OCc2cccnc2)cc1 + CN1CCN(c2cc(C(=O)Nc3cc4cc(-c5cnn(C)c5)ccc4cn3)ccn2)CC1

>  <Recorded Result>
0.67%

$$$$

Returns the measured viability, T/C for the input compound. Input: C#Cc1c(F)ccc2cc(O)cc(-c3ncc4c(N5CC6CCC(C5)N6)nc(OCC56CCCN5CC(F)C6)nc4c3F)c12 (centres undefined) + CN1CCN(c2cc(C(=O)Nc3cc4cc(-c5cnn(C)c5)ccc4cn3)ccn2)CC1
0.53%

* * *

- System: 186277-243-T-J2-PDC spheroids with HUVEC/MSC, viability
- Test Name: Anticancer human tumor 186277-243-T-J2-PDC cell line growth inhibition [CLK];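 note: compound exposure lasted seven days before readout; 100% = DMSO vehicle control wells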
- Experimental Parameters: second compound 1 µM; first compound 0.0316 µM; hits give low values
Value Kind: viability, T/C

>  <Compound>
CC(CO)NC(=O)c1cc(-c2ccc(Cl)cc2)nn(-c2cnn(C)c2)c1=O (stereo not drawn) + CN1CCN(c2cc(C(=O)Nc3cc4cc(-c5cnn(C)c5)ccc4cn3)ccn2)CC1

>  <Recorded Result>
0.55%

$$$$
>  <Compound>
C#Cc1c(F)ccc2cc(O)cc(-c3ncc4c(N5CC6CCC(C5)N6)nc(OCC56CCCN5CC(F)C6)nc4c3F)c12 (stereo not drawn) + CNC(=O)c1ccc(Nc2nc(OC3CCCC3)c3c(-c4ccc5nc(C)oc5c4)c[nH]c3n2)c(OC)c1

>  <Recorded Result>
13.1%

$$$$

Attention now shifts to the item below.
Returns the measured viability, T/C for the input compound. Input: C=C(F)C(=O)N1CCN(c2nc(OCC3CCCN3C)nc3c2CCN(c2cccc4cccc(Cl)c24)C3)CC1CC#N (stereo not drawn) + CN1CCN(c2cc(C(=O)Nc3cc4cc(-c5cnn(C)c5)ccc4cn3)ccn2)CC1
1.65%

* * *

- System: 186277-243-T-J2-PDC spheroids with HUVEC/MSC, viability
- Test Name: Anticancer human tumor 186277-243-T-J2-PDC cell line growth inhibition [CLK];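 note: compound exposure lasted seven days before readout; 100% = DMSO vehicle control wells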
- Experimental Parameters: second compound 0.1 µM; first compound 0.0316 µM; hits give low values
# strict inequality: viability, T/C < 80% yields 1, everything else yields -1

Solved entries (count: 4):
>  <Compound>
CCN1CCN(Cc2ccc(Nc3ncc(F)c(-c4cc(F)c5nc(C)n(C(C)C)c5c4)n3)nc2)CC1 + CN1CCN(c2cc(C(=O)Nc3cc4cc(-c5cnn(C)c5)ccc4cn3)ccn2)CC1

>  <Study System>
186277-243-T-J2-PDC spheroids with HUVEC/MSC, viability

>  <Assigned Category>
-1

$$$$
>  <Compound>
CCc1c2c(nc3ccc(O)cc13)-c1cc3c(c(=O)n1C2)COC(=O)[C@]3(O)CC + CN1CCN(c2cc(C(=O)Nc3cc4cc(-c5cnn(C)c5)ccc4cn3)ccn2)CC1

>  <Study System>
186277-243-T-J2-PDC spheroids with HUVEC/MSC, viability

>  <Assigned Category>
1

$$$$
>  <Compound>
CCN1CCN(Cc2ccc(Nc3ncc(F)c(-c4cc(F)c5nc(C)n(C(C)C)c5c4)n3)nc2)CC1 + CNC(=O)c1ccc(Nc2nc(OC3CCCC3)c3c(-c4ccc5nc(C)oc5c4)c[nH]c3n2)c(OC)c1

>  <Study System>
186277-243-T-J2-PDC spheroids with HUVEC/MSC, viability

>  <Assigned Category>
-1

$$$$
>  <Compound>
O=C(c1cc(Cc2n[nH]c(=O)c3ccccc23)ccc1F)N1CCN(C(=O)C2CC2)CC1 + CNC(=O)c1ccc(Nc2nc(OC3CCCC3)c3c(-c4ccc5nc(C)oc5c4)c[nH]c3n2)c(OC)c1

>  <Study System>
186277-243-T-J2-PDC spheroids with HUVEC/MSC, viability

>  <Assigned Category>
-1

$$$$

Strictly below 80%: is that where viability, T/C of CC(=O)O[C@H]1C(=O)[C@@]2(C)[C@H]([C@H](OC(=O)c3ccccc3)[C@]3(O)C[C@H](OC(=O)[C@H](O)[C@@H](NC(=O)c4ccccc4)c4ccccc4)C(C)=C1C3(C)C)[C@]1(OC(C)=O)CO[C@@H]1C[C@@H]2O + CNC(=O)c1ccc(Nc2nc(OC3CCCC3)c3c(-c4ccc5nc(C)oc5c4)c[nH]c3n2)c(OC)c1 sits?
1

Strictly below 80%: is that where viability, T/C of CCCS(=O)(=O)Nc1ccc(F)c(C(=O)c2c[nH]c3ncc(-c4ccc(Cl)cc4)cc23)c1F + CNC(=O)c1ccc(Nc2nc(OC3CCCC3)c3c(-c4ccc5nc(C)oc5c4)c[nH]c3n2)c(OC)c1 sits?
1

Strictly below 80%: is that where viability, T/C of C=C(F)C(=O)N1CCN(c2nc(OCC3CCCN3C)nc3c2CCN(c2cccc4cccc(Cl)c24)C3)CC1CC#N (stereo not given) + CN1CCN(c2cc(C(=O)Nc3cc4cc(-c5cnn(C)c5)ccc4cn3)ccn2)CC1 sits?
-1

Strictly below 80%: is that where viability, T/C of Nc1ccn(C2OC(CO)C(O)C2(F)F)c(=O)n1 (stereo not given) + CNC(=O)c1ccc(Nc2nc(OC3CCCC3)c3c(-c4ccc5nc(C)oc5c4)c[nH]c3n2)c(OC)c1 sits?
1

Strictly below 80%: is that where viability, T/C of CC(CO)NC(=O)c1cc(-c2ccc(Cl)cc2)nn(-c2cnn(C)c2)c1=O (stereo not given) + CN1CCN(c2cc(C(=O)Nc3cc4cc(-c5cnn(C)c5)ccc4cn3)ccn2)CC1 sits?
-1

Strictly below 80%: is that where viability, T/C of O=C(c1cc(Cc2n[nH]c(=O)c3ccccc23)ccc1F)N1CCN(C(=O)C2CC2)CC1 + CN1CCN(c2cc(C(=O)Nc3cc4cc(-c5cnn(C)c5)ccc4cn3)ccn2)CC1 sits?
-1
